- ASSAY EXPLANATION: Human HepG2 cell viability assay in 384 well format
- Format: toxicity, cell-based
- Set-up: dose 125 nL, time 70.5 hour; concentration not given beside the values
- TEST SETTINGS: HepG2 cells, read-out: Inhibition
QUANTITY NAME: cytotoxicity at 70.5 h (%)
Express it in %; write the number only.

Some compounds with recorded cytotoxicity at 70.5 h:
COMPOUND	cytotoxicity at 70.5 h [%]
Cn1cc(CCC(=O)N2CCCC(n3cncn3)C2)cn1 (stereo not drawn)	-0.386
CCOc1ccccc1-n1c(C2CC2)n[nH]c1=O	-16.7
COC(=O)c1ccc(N2CCN(CCN3CCOCC3)C(C)C2)cc1 (stereo not drawn)	-6.62

The value of cytotoxicity at 70.5 h measured for the compound `CCc1c(C(=O)N2CC[C@H](N3CCOCC3)[C@H](CCCO)C2)csc1C` turned out to be -20.4

Per the record, CCS(=O)(=O)N1CCC2(CCCN(Cc3ccc(F)c(F)c3)C2=O)C1 (stereo not drawn) has cytotoxicity at 70.5 h of 1.7

// field: cytotoxicity at 70.5 h; key: `Cc1cc(-c2cnc(N3CCCCCC3)nc2-c2cccnc2C)on1` ; value = -12.8

Entry `C=C(C)COc1cccc(C(=O)N(C)Cc2cc(CC)no2)c1` ; cytotoxicity at 70.5 h = -3.37

Form: compound = `CN1C(=O)CCN(C(=O)C2CC=CC2)c2ccccc21` ; cytotoxicity at 70.5 h = 1.54
